- study target: Nitric oxide synthase 3 (Homo sapiens)
- Sequence (P29474 whole entry): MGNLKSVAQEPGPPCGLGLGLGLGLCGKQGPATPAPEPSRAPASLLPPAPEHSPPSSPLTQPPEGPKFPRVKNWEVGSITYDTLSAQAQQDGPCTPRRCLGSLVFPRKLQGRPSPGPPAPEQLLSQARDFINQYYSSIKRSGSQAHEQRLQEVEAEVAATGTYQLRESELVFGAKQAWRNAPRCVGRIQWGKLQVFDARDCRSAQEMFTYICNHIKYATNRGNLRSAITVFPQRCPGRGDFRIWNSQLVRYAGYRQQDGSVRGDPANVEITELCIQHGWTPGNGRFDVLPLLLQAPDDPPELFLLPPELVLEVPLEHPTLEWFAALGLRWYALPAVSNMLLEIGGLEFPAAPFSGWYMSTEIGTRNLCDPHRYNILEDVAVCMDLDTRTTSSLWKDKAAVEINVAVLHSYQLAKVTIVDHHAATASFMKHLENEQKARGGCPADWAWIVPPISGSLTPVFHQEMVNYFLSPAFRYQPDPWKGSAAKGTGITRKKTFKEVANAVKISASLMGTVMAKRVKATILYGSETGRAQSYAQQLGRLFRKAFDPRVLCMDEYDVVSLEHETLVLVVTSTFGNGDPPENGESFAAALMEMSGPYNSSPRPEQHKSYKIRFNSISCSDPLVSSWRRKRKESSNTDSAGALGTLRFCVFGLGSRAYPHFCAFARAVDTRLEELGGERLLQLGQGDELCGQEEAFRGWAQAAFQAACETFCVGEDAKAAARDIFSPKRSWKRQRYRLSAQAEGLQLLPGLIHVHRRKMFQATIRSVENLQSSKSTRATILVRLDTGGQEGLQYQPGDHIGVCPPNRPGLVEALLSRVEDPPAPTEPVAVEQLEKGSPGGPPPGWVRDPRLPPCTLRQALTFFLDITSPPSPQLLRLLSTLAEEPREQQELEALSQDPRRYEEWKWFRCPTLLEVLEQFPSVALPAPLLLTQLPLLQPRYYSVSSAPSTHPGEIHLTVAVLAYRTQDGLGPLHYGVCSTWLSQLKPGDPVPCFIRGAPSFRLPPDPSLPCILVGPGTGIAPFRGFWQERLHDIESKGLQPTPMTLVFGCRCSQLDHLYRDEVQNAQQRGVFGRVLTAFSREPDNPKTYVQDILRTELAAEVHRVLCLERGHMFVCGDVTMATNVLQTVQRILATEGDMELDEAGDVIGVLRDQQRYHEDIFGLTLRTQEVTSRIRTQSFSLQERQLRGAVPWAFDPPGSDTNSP
- method description: Ability to inhibit conversion of [3H]L-Arg to [3H]L-citrulline catalyzed by endothelial NOS (e NOS) from HUVEC cells
pIC50: −log10 of the molar value.
property label: pIC50

[Q] Recorded pIC50 for C#CC1Cc2ccccc2C(N)=N1 (centres undefined) , please?
[A] 6.05

[Q] Recorded pIC50 for NC1=NC(C2CC2)Cc2ccccc21 (centres undefined) , please?
[A] 5.44

[Q] Recorded pIC50 for NC1=NC(c2ccc(F)cc2)Cc2ccc(F)cc21 (centres undefined) , please?
[A] 4.26

[Q] Recorded pIC50 for NC1=NC(c2ccco2)Cc2ccccc21 (centres undefined) , please?
[A] 5.30

[Q] Recorded pIC50 for NC1=NC(c2ccccc2)Cc2cccc(Cl)c21 (centres undefined) , please?
[A] 5.22

(P) NC1=NC(c2nccs2)Cc2ccccc21 (centres undefined)
(Q) NC1=NC(c2ccc(F)cc2)Cc2ccccc21 (centres undefined)
[Q] I'd appreciate it if you could identify which of P and Q has the greater pIC50. // output: label of the selected item
[A] P

(I) NC1=NC(c2cccs2)Cc2ccccc21 (centres undefined)
(II) NC1=NC(c2ccc(F)cc2)Cc2cc(F)ccc21 (centres undefined)
(III) NC1=NC(c2ccc(F)cc2)Cc2c(F)cccc21 (centres undefined)
[Q] Provide the items ranked by increasing pIC50. Return value: ordered labels per request.
[A] II, III, I
(II: 4.00, III: 4.36, I: 5.10)

Data origin, for the record: ChEMBL document CHEMBL1134020
